meta.source: ChEMBL document CHEMBL1123565

Known log10 of ED50 of a selection of compounds
# Tested on: Mus musculus
# TEST: Antagonistic activity test against 5-Hydroxytryptamine-induced head shake in mouse after intraperitoneal administration
# Assay type: functional
# EXPERIMENTAL PARAMETERS: ip, read-out: ID50 (the source's name)
Scale: decimal log of ED50, ED50 in mg/kg.

Look over these answered cases.
[
  {
    "STRUCTURE SMILES": "Cc1c(-c2ccccc2)c(SCCN(C)C)nc2ccccc12.O=C(O)C(=O)O",
    "TESTED SYSTEM": "Mus musculus",
    "log10 of ED50": 0.79
  },
  {
    "STRUCTURE SMILES": "CN(C)CCSc1nc2ccccc2cc1C1CCCC1.O=C(O)C(=O)O",
    "TESTED SYSTEM": "Mus musculus",
    "log10 of ED50": 1.70
  },
  {
    "STRUCTURE SMILES": "COc1ccccc1-c1cc2cc(C)ccc2nc1SCCN(C)C.O=C(O)C(=O)O",
    "TESTED SYSTEM": "Mus musculus",
    "log10 of ED50": 1.70
  },
  {
    "STRUCTURE SMILES": "Cc1c(C(C)C)c(SCCN(C)C)nc2ccccc12.O=C(O)C(=O)O",
    "TESTED SYSTEM": "Mus musculus",
    "log10 of ED50": 1.70
  },
  {
    "STRUCTURE SMILES": "Cl.NCCSc1nc2ccccc2cc1-c1ccccc1",
    "TESTED SYSTEM": "Mus musculus",
    "log10 of ED50": 1.70
  }
]

What reported log10 of ED50 corresponds to `CCN(C)CCSc1nc2ccccc2cc1-c1ccccc1.O=C(O)C(=O)O` on Mus musculus? 1.70

Request body: readout log10 of ED50, system Mus musculus, query `CN(C)CCSc1nc2ccccc2cc1-c1cccc(F)c1.Cl` . Return the value. 0.40

----------
# Tested on: Rattus norvegicus
# TEST: Antagonistic activity against fenfluramine induced hyperthermia in rat after peroral administration
# Assay type: functional
# EXPERIMENTAL PARAMETERS: po, read-out: ID50 (the source's name)
MEASUREMENT TYPE: ED50
Please format your answer as a value with the unit trailing.

Field: example entries. Status: answers known.
[
  {
    "COMPOUND": "COc1ccc2cc(-c3ccccc3)c(SCCN(C)C)nc2c1.Cl",
    "MEASUREMENT TYPE": "ED50",
    "MEASURED": "3.1 mg/kg"
  },
  {
    "COMPOUND": "CCc1cc2ccccc2nc1SCCN(C)C.Cl",
    "MEASUREMENT TYPE": "ED50",
    "MEASURED": "50 mg/kg"
  },
  {
    "COMPOUND": "Cc1cccc(-c2cc3ccccc3nc2SCCN(C)C)c1.Cl",
    "MEASUREMENT TYPE": "ED50",
    "MEASURED": "5.9 mg/kg"
  },
  {
    "COMPOUND": "CN(C)CCSc1nc2ccccc2cc1C1CCCCC1.Cl",
    "MEASUREMENT TYPE": "ED50",
    "MEASURED": "50 mg/kg"
  },
  {
    "COMPOUND": "COc1c(-c2ccc(F)cc2)c(SCCN(C)C)nc2ccccc12.O=C(O)C(=O)O",
    "MEASUREMENT TYPE": "ED50",
    "MEASURED": "3.3 mg/kg"
  }
]

If you can, please state the reported ED50 value of `CCN(CC)CCSc1nc2ccccc2cc1-c1ccccc1.Cl` . 50 mg/kg

# get_value(readout='ED50', item= `CN(C)CCSc1nc2ccccc2cc1-c1cccc(F)c1.Cl` ) 4.6 mg/kg

Look up ED50: `COc1ccccc1-c1c(SCCN(C)C)nc2ccccc2c1C.O=C(O)C(=O)O` 50 mg/kg

Given the compound `CSc1ccc2cc(-c3ccccc3)c(SCCN(C)C)nc2c1` , what is its reported ED50? 50 mg/kg

Any idea what its ED50 is? The compound is `CN(C)CCSc1nc2ccccc2cc1-c1ccccc1Cl.Cl` 9.9 mg/kg

----------
compounds and their reported ED50
# Tested on: Rattus norvegicus
# TEST: Antagonistic activity against fenfluramine induced hyperthermia in rat after peroral administration
# Assay type: functional
# EXPERIMENTAL PARAMETERS: po, read-out: ID50 (the source's name)
Please reply with the bare figure in mg/kg and do not write the unit itself.

Below are worked cases with known answers.
[
  {
    "STRUCTURE SMILES": "Cc1ncc(-c2cc3ccccc3nc2SCCN(C)C)s1.O=C(O)C(=O)O",
    "TESTED SYSTEM": "Rattus norvegicus",
    "ED50 [mg/kg]": 6.9
  },
  {
    "STRUCTURE SMILES": "CN(C)CCSc1nc2cc(N(C)C)ccc2cc1-c1ccccc1.O=C(O)C(=O)O",
    "TESTED SYSTEM": "Rattus norvegicus",
    "ED50 [mg/kg]": 50
  },
  {
    "STRUCTURE SMILES": "CC(C)c1cc2ccccc2nc1SCCN(C)C.Cl",
    "TESTED SYSTEM": "Rattus norvegicus",
    "ED50 [mg/kg]": 2.7
  },
  {
    "STRUCTURE SMILES": "CN(C)CCSc1nc2ccccc2cc1-c1ccc(O)cc1.Cl",
    "TESTED SYSTEM": "Rattus norvegicus",
    "ED50 [mg/kg]": 50
  },
  {
    "STRUCTURE SMILES": "CN(C)CCSc1nc2ccccc2cc1-c1ccc(Br)cc1.Cl",
    "TESTED SYSTEM": "Rattus norvegicus",
    "ED50 [mg/kg]": 50
  }
]

What value of ED50 has been reported for the following compound? `Cc1c(-c2ccsc2)c(SCCN(C)C)nc2ccccc12.O=C(O)C(=O)O` 50

What does the data say about its ED50? Entry: `CN(C)CCSc1nc2ccccc2cc1-c1ccc(C#N)cc1.Cl` 10.7

----------
# System: Mus musculus
# TEST: Antagonistic activity test against 5-Hydroxytryptamine-induced head shake in mouse after intraperitoneal administration
# Assay type: functional
# EXPERIMENTAL PARAMETERS: ip, read-out: ID50 (the source's name)
MEASUREMENT TYPE: ED50

[
  {
    "MOLECULE": "Cc1ccc2cc(-c3ccccc3)c(SCCN(C)C)nc2c1.O=C(O)C(=O)O",
    "MEASURED": "50 mg/kg"
  }
]

Under Mus musculus: ED50 value of `CN(C)CCSc1nc2ccc(Br)cc2cc1-c1ccccc1.O=C(O)C(=O)O` ? 50 mg/kg

Recorded ED50 for CCC(C)c1cc2ccccc2nc1SCCN(C)C.O=C(O)C(=O)O (stereo not given) with Mus musculus, please? 1.5 mg/kg

Which measured ED50 belongs to `CN(C)CCSc1nc2ccccc2cc1-c1ccc(Br)cc1.Cl` , tested on Mus musculus? 19.1 mg/kg

Missing value: ED50, Mus musculus, entry `Cc1ccc(-c2cc3ccccc3nc2SCCN(C)C)cc1.Cl` . Fill in? 1.9 mg/kg

Write down the reported ED50 of `Cc1ccccc1-c1cc2ccccc2nc1SCCN(C)C.Cl` , test system: Mus musculus. 3 mg/kg

Hello, I am looking for reported ED50 with Mus musculus for `Cc1cccc(-c2cc3ccccc3nc2SCCN(C)C)c1.Cl` . Could you help? 1.7 mg/kg

Fill in the recorded ED50 for this molecule, with Mus musculus as test system: `CN(C)CCSc1nc2ccccc2cc1-c1ccccc1Cl.Cl` 50 mg/kg

Recall the recorded ED50 for `COc1ccc(-c2cc3ccccc3nc2SCCN(C)C)cc1.Cl` with Mus musculus and state it. 5.9 mg/kg

Requested read-out ED50, target or system Mus musculus, entry `CN(C)CCSc1nc2ccccc2cc1-c1ccc(C(F)(F)F)cc1.Cl` 50 mg/kg

Observed ED50 on Mus musculus for `CNCCSc1nc2ccccc2cc1-c1ccccc1.Cl` , please. 6.2 mg/kg

Form field - read-out: ED50; system: Mus musculus; submitted item: `COc1ccccc1-c1cc2ccccc2nc1SCCN(C)C.Cl` 1.2 mg/kg

Lab note: need ED50 for `Cc1c(-c2ccsc2)c(SCCN(C)C)nc2ccccc12.O=C(O)C(=O)O` on Mus musculus, anyone have it? 3.1 mg/kg

Find the measured ED50: item `CCCOc1ccc2cc(-c3ccccc3)c(SCCN(C)C)nc2c1.O=C(O)C(=O)O` , target or system Mus musculus. 50 mg/kg

# query: ED50 | item `COc1cccc(-c2cc3ccccc3nc2SCCN(C)C)c1.Cl` | system: Mus musculus 25 mg/kg
